The measurements presented in this section are drawn from patent US20190345225A1.

Target: T1, BMP-9 (UniProt Q9UK05 320-429)
T1 construct: also called bone morphogenetic protein 9
T1 sequence (looked up): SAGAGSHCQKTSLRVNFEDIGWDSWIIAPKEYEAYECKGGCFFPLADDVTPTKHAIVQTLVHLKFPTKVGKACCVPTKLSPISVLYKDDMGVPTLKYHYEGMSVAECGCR
Assay: SPR, Biacore 3000; receptor fusion captured on chip, ligand in solution
Would you mind telling me the reported pKd of each entry?
pKd field: float, defined as -log10 of concentration (mol/L).

Problem: Consider the binder extracellular ActRIIa/bΔ9 min variant (SEQ ID NO: 6) fused to the N-terminus of hFc through a GGG linker (Fc fusion, not shown: human Fc (hFc)) GAILGRSETQECLFYNANWELDRTNQTGVEPCEGEKDKRLHCFATWKNISGSIEIVKKGCWLDDINCYDRTDCVETKENPQVYFCCCEGNMCNEKFSYFPEMEVTQPTSGGG . State its measured pKd.
Result: 7.77

Problem: Consider the binder extracellular ActRIIa/bΔ9 variant (SEQ ID NO: 58) fused to the N-terminus of hFc through a GGG linker (Fc fusion, also called ActRIIA/BΔ9-Fc; not shown: human Fc (hFc)) GAILGRSETQECLFYNANWELDRTNQTGVERCEGEKDKRLHCYATWRNISGSIEIVKKGCWLDDFNCYDRTDCVETKENPQVYFCCCEGNMCNEKFSYFPEMEVTQPTSGGG . State its measured pKd.
Result: 8.00

Problem: Consider the binder ActRIIa/b+ (SEQ ID NO: 150) fused to the N-terminus of hFc through a GGG linker (Fc fusion, also called ActRIIab+ variant; not shown: human Fc (hFc)) GAILGRSETQECLFYNANWELERTNQTGVERCEGEKDKRLHCYATWRNISGSIEIVAKGCWLDDFNCYDRTDCVETEENPQVYFCCCEGNMCNEKFSYFPEMEVTQPTSGGG . State its measured pKd.
Result: 7.59

Problem: Consider the binder ActRIIa/bmax3 variant (SEQ ID NO: 72) fused to the N-terminus of hFc through a GGG linker (Fc fusion, not shown: human Fc (hFc)) GAILGRSETQECLFYNANWELERTNQTGVERCEGEKDKRLHCYATWRNISGSIEIVKKGCWLDDFNCYDRTDCVETEENPQVYFCCCEGNMCNEKFSYFPEMEVTQPTSNPVTPKGGG . State its measured pKd.
Result: 8.48

Problem: Consider the binder ActRIIa/b-delta 9m3 (SEQ ID NO: 41) fused to the N-terminus of hFc through a GGG linker (Fc fusion, also called ActRIIa/bΔ9m3 variant; not shown: human Fc (hFc)) GAILGRSETQECLFYNANWELDRTNQTGVERCEGEKDKRLHCFATWRNISGSIEIVKKGCWLDDFNCYDRTDCVETKENPQVYFCCCEGNMCNEKFSYFPEMEVTQPTSGGG . State its measured pKd.
Result: 8.92

Problem: Consider the binder ActRIIa/bmax1 (SEQ ID NO: 70) fused to the N-terminus of hFc through a GGG linker (Fc fusion, also called ActRIIa/bmax1 variant; not shown: human Fc (hFc)) GAILGRSETQECLYYNANWELERTNQTGVERCEGEQDKRLHCYATWRNISGSIEIVKKGCWLDDFNCYDRTDCVETEENPQVYFCCCEGNMCNEKFSYFPEMEVTQPTSGGG . State its measured pKd.
Result: 8.25
